# TARGET_OR_TEST_SYSTEM: T1, human CD47 expressed on cells (CD47 expressing CHO cells, Jurkat, HL60, DLD1, Raji) (human, UniProt Q08722 19-292)
# T1 construct: also called CHO-CD47; IAP
# ASSAY_REMARKS: flow cytometry on human red blood cells, donor 2, MFI
RECORDED_METRIC: EC50 (read off the curve)

stdin: What EC50 (read off the curve) value was documented for this binder, H-ABU 7 (antibody, V domains shown) VH: QVQLVQSGAEVKKPGASVKVSCKASGYTFTDHYINWVRQAPGQRLEWMGWIYLGSGNTKYNEKFKGRVTITRDTSASTAYMELSSLRSEDTAVYYCARREDRGFAYWGQGTLVTVSS VL: DIVMTQSPDSLAVSLGERATINCKSSQSLLSSSQKNYLAWYQQKPGQPPKLLIYWASVRDSGVPDRFSGSGSGTDFTLTISSLQAEDVAVYYCQQYYSYPLTFGQGTKVEIK ?
stdout: ~1 nM

Values from patent US20200247886A1
